Data provenance is patent US9260395B2.

Test system: NL4-3 strain of HIV-1
Assay: Cyto-protection (CellTiter-Glo viability) assay of MT4 cells infected with NL4-3 virus; inhibition of HIV replication
Type: cell-based
Details: Human immunodeficiency virus 1, NL43, MT4, 120 h
property: EC50
Quote the value and follow it with the unit of measurement.

Entry Cn1nc(C2=CC3CCC2C3)c(-c2ccc3c(c2)CCCO3)c1C(OC(C)(C)C)C(=O)O (stereo not shown) , EC50 reported as 550 nM
